Attribution: patent US5811271A

Tgt: D-ketohexose 3-epimerase (Pseudomonas cichorii)
Construct: The cells which had been recovered from 80 liters of the resultant culture were crushed by grinding; made in house; host or cells: Pseudomonas cichorii ST-24 (FERM BP-2736), the natural producer; not recombinant
Test: Relative enzyme activity of purified D-ketohexose 3-epimerase on L-ketohexose substrates
Format: biochemical, Pseudomonas cichorii ST-24
Conditions Used: substrate in 0.1 M solution (pH 7.5), 11 units/g substrate of enzyme, 30° C., 24 hours; D-tagatose as control regarded as 100
Experimental: D-Ketohexose 3-epimerase was studied for relative enzyme activity on various L-ketohexoses. […] The enzyme specimen thus obtained was assayed as follows: The reaction solution used in this assay consisted of 100 microliters of 50 mM Tris-HCl buffer (pH 7.5), 50 microliters 40 mM D-tagatose and 50 microliters of an enzyme solution. The enzymatic reaction was carried out at 30° C. for 60 minutes, and the formed D-sorbose was quantified on HPLC. […]
Outcome Measure: Relative enzyme activity

Record O=C(CO)[C@@H](O)[C@@H](O)[C@H](O)CO [D-Tagatose, reference compound] / D-ketohexose 3-epimerase (Pseudomonas cichorii), Relative enzyme activity recorded as 100
